# TARGET SYSTEM: CYP3A4 (Homo sapiens, UniProt P08684)
# Sequence (P08684 whole entry): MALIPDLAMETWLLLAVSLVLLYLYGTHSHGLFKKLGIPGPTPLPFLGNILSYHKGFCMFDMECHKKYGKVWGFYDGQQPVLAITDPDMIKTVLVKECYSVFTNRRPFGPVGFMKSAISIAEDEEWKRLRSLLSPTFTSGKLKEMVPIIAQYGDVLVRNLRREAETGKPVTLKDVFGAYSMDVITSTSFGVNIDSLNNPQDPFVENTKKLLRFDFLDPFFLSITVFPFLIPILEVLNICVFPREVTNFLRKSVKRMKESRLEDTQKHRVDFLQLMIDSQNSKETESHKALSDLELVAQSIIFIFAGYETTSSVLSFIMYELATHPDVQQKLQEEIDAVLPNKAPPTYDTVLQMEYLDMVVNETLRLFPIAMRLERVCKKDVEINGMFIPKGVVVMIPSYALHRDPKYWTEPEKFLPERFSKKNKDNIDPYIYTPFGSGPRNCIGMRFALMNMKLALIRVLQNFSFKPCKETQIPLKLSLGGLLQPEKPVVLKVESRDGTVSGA
# EXPERIMENTAL DETAILS: CYP inhibition assay CYP3A4, substrate testosterone
# Type: in vitro ADME
# MEASUREMENT CONDITIONS: substrate testosterone
OBSERVATION TYPE: pIC50
To interpret pIC50, take it as minus log10 of a concentration measured in moles per litre.

Documented pIC50 of N[C@@]1(c2ccccc2Cl)CCC[C@@H](O)C1=O [2R,6R-hydroxynorketamine] : 4.09

* * *

# TARGET SYSTEM: CYP1A2 (Homo sapiens)
# Sequence (P05177 whole entry): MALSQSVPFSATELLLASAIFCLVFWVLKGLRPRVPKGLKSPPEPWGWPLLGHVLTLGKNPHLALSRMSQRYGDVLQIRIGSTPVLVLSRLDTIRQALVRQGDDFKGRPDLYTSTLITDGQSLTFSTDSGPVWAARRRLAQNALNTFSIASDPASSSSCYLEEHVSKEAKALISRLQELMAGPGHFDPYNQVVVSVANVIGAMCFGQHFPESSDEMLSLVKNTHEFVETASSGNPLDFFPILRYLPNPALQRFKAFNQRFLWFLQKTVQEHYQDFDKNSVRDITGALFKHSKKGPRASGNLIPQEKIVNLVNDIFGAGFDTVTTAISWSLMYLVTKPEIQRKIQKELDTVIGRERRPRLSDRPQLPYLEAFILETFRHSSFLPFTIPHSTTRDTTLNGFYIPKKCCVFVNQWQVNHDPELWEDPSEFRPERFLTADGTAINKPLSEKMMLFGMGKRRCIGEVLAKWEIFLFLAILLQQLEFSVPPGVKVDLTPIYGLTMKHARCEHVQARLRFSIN
# EXPERIMENTAL DETAILS: CYP inhibition assay CYP1A2
# Type: in vitro ADME
OBSERVATION TYPE: IC50

Documented IC50 of N[C@@]1(c2ccccc2Cl)CCC[C@@H](O)C1=O [2R,6R-hydroxynorketamine] : ~100 µM
